Quick reference for viability, T/C among some compounds
System: PDC tumor spheroids with HUVEC/MSC, viability
experimental-protocol: Anticancer human tumor 439559-082-T-J2-PDC patient-derived colon adenocarcinoma cell line growth inhibition [TAK]
condition-notes: second compound 30 µM; first compound 0.001 µM; stronger effect = lower value

- compound: "CC(C)CC(NC(=O)C(Cc1ccccc1)NC(=O)c1cnccn1)B(O)O (centres undefined) + CC(C)NCC(C(=O)N1CCN(c2ncnc3c2C(C)CC3O)CC1)c1ccc(Cl)cc1"
  study-target: "PDC tumor spheroids with HUVEC/MSC, viability"
  unit-annotation: "%"
  viability, T/C: 89.2
- compound: "CC(C)CC(NC(=O)CNC(=O)c1cc(Cl)ccc1Cl)B1OC(=O)CC(CC(=O)O)(C(=O)O)O1 (centres undefined) + CC(C)NCC(C(=O)N1CCN(c2ncnc3c2C(C)CC3O)CC1)c1ccc(Cl)cc1"
  study-target: "PDC tumor spheroids with HUVEC/MSC, viability"
  unit-annotation: "%"
  viability, T/C: 90.5
- compound: "COC1CC2CCC(C)C(O)(O2)C(=O)C(=O)N2CCCCC2C(=O)OC(C(C)CC2CCC(OCCO)C(OC)C2)CC(=O)C(C)C=C(C)C(O)C(OC)C(=O)C(C)CC(C)C=CC=CC=C1C (centres undefined) + CC(C)NCC(C(=O)N1CCN(c2ncnc3c2C(C)CC3O)CC1)c1ccc(Cl)cc1"
  study-target: "PDC tumor spheroids with HUVEC/MSC, viability"
  unit-annotation: "%"
  viability, T/C: 91.2
- compound: "CC(C)n1nc(-c2ccc3oc(N)nc3c2)c2c(N)ncnc21 + CC(C)NCC(C(=O)N1CCN(c2ncnc3c2C(C)CC3O)CC1)c1ccc(Cl)cc1"
  study-target: "PDC tumor spheroids with HUVEC/MSC, viability"
  unit-annotation: "%"
  viability, T/C: 91.1

---

Tested on: PDC tumor spheroids with HUVEC/MSC, viability
experimental-protocol: Anticancer human tumor 439559-082-T-J2-PDC cell line growth inhibition [TAK];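 also: spheroids exposed to drugs for seven days before readout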
condition-notes: curve of first compound; second compound 9.49 µM

- molecule: "CC(C)CC(NC(=O)CNC(=O)c1cc(Cl)ccc1Cl)B1OC(=O)CC(CC(=O)O)(C(=O)O)O1 (stereo not given) + CC(C)NCC(C(=O)N1CCN(c2ncnc3c2C(C)CC3O)CC1)c1ccc(Cl)cc1"
  IC50: "> 100 nM"
- molecule: "CCCS(=O)(=O)Nc1ccc(F)c(C(=O)c2c[nH]c3ncc(-c4ccc(Cl)cc4)cc23)c1F + CC(C)NCC(C(=O)N1CCN(c2ncnc3c2C(C)CC3O)CC1)c1ccc(Cl)cc1"
  IC50: "> 100000 nM"
- molecule: "CC(=O)Nc1cccc(-n2c(=O)n(C3CC3)c(=O)c3c(Nc4ccc(I)cc4F)n(C)c(=O)c(C)c32)c1 + CC(C)NCC(C(=O)N1CCN(c2ncnc3c2C(C)CC3O)CC1)c1ccc(Cl)cc1"
  IC50: "> 30 nM"
- molecule: "CC(C)(C)c1nc(-c2cccc(NS(=O)(=O)c3c(F)cccc3F)c2F)c(-c2ccnc(N)n2)s1 + CC(C)NCC(C(=O)N1CCN(c2ncnc3c2C(C)CC3O)CC1)c1ccc(Cl)cc1"
  IC50: "> 10000 nM"
- molecule: "CC(C)n1nc(-c2ccc3oc(N)nc3c2)c2c(N)ncnc21 + CC(C)NCC(C(=O)N1CCN(c2ncnc3c2C(C)CC3O)CC1)c1ccc(Cl)cc1"
  IC50: "> 100 nM"
- molecule: "Cc1nc(NC(=O)N2CCCC2C(N)=O)sc1-c1ccnc(C(C)(C)C(F)(F)F)c1 (stereo not given) + CC(C)NCC(C(=O)N1CCN(c2ncnc3c2C(C)CC3O)CC1)c1ccc(Cl)cc1"
  IC50: "> 10000 nM"
- molecule: "CC(C)CC(NC(=O)C(Cc1ccccc1)NC(=O)c1cnccn1)B(O)O (stereo not given) + CC(C)NCC(C(=O)N1CCN(c2ncnc3c2C(C)CC3O)CC1)c1ccc(Cl)cc1"
  IC50: "> 10 nM"
- molecule: "COc1c(OCCCN2CCOCC2)ccc2c3n(c(=NC(=O)c4cnc(N)nc4)nc12)CCN3 + CC(C)NCC(C(=O)N1CCN(c2ncnc3c2C(C)CC3O)CC1)c1ccc(Cl)cc1"
  IC50: "> 1000 nM"
- molecule: "Cn1cnc2c(F)c(Nc3ccc(Br)cc3Cl)c(C(=O)NOCCO)cc21 + CC(C)NCC(C(=O)N1CCN(c2ncnc3c2C(C)CC3O)CC1)c1ccc(Cl)cc1"
  IC50: "> 3000 nM"
- molecule: "COC1CC2CCC(C)C(O)(O2)C(=O)C(=O)N2CCCCC2C(=O)OC(C(C)CC2CCC(OCCO)C(OC)C2)CC(=O)C(C)C=C(C)C(O)C(OC)C(=O)C(C)CC(C)C=CC=CC=C1C (stereo not given) + CC(C)NCC(C(=O)N1CCN(c2ncnc3c2C(C)CC3O)CC1)c1ccc(Cl)cc1"
  IC50: "> 100 nM"

---

Test system: PDC tumor spheroids with HUVEC/MSC, viability
experimental-protocol: Anticancer human tumor 439559-082-T-J2-PDC cell line growth inhibition [TAK];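 also: spheroids exposed to drugs for seven days before readout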
condition-notes: second compound 0.3 µM; first compound 1 µM; stronger effect = lower value
Quick reference for viability, T/C among some molecules

- molecule: "Cc1nc(NC(=O)N2CCCC2C(N)=O)sc1-c1ccnc(C(C)(C)C(F)(F)F)c1 (centres undefined) + CC(C)NCC(C(=O)N1CCN(c2ncnc3c2C(C)CC3O)CC1)c1ccc(Cl)cc1"
  unit-annotation: "%"
  viability, T/C: 86.8
- molecule: "CC(C)(C)c1nc(-c2cccc(NS(=O)(=O)c3c(F)cccc3F)c2F)c(-c2ccnc(N)n2)s1 + CC(C)NCC(C(=O)N1CCN(c2ncnc3c2C(C)CC3O)CC1)c1ccc(Cl)cc1"
  unit-annotation: "%"
  viability, T/C: 110
- molecule: "CCCS(=O)(=O)Nc1ccc(F)c(C(=O)c2c[nH]c3ncc(-c4ccc(Cl)cc4)cc23)c1F + CC(C)NCC(C(=O)N1CCN(c2ncnc3c2C(C)CC3O)CC1)c1ccc(Cl)cc1"
  unit-annotation: "%"
  viability, T/C: 103
- molecule: "COc1c(OCCCN2CCOCC2)ccc2c3n(c(=NC(=O)c4cnc(N)nc4)nc12)CCN3 + CC(C)NCC(C(=O)N1CCN(c2ncnc3c2C(C)CC3O)CC1)c1ccc(Cl)cc1"
  unit-annotation: "%"
  viability, T/C: 66.9

---

Quick reference for viability, T/C among some molecules
System: PDC tumor spheroids with HUVEC/MSC, viability
experimental-protocol: Anticancer human tumor 439559-082-T-J2-PDC cell line growth inhibition [TAK];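 also: spheroids exposed to drugs for seven days before readout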
condition-notes: second compound 30 µM; first compound 0.000316 µM; stronger effect = lower value

- molecule: "CC(C)n1nc(-c2ccc3oc(N)nc3c2)c2c(N)ncnc21 + CC(C)NCC(C(=O)N1CCN(c2ncnc3c2C(C)CC3O)CC1)c1ccc(Cl)cc1"
  study-target: "PDC tumor spheroids with HUVEC/MSC, viability"
  unit-annotation: "%"
  viability, T/C: 88.6
- molecule: "CC(C)CC(NC(=O)C(Cc1ccccc1)NC(=O)c1cnccn1)B(O)O (centres undefined) + CC(C)NCC(C(=O)N1CCN(c2ncnc3c2C(C)CC3O)CC1)c1ccc(Cl)cc1"
  study-target: "PDC tumor spheroids with HUVEC/MSC, viability"
  unit-annotation: "%"
  viability, T/C: 87.3
- molecule: "CC(C)CC(NC(=O)CNC(=O)c1cc(Cl)ccc1Cl)B1OC(=O)CC(CC(=O)O)(C(=O)O)O1 (centres undefined) + CC(C)NCC(C(=O)N1CCN(c2ncnc3c2C(C)CC3O)CC1)c1ccc(Cl)cc1"
  study-target: "PDC tumor spheroids with HUVEC/MSC, viability"
  unit-annotation: "%"
  viability, T/C: 85.7
- molecule: "COC1CC2CCC(C)C(O)(O2)C(=O)C(=O)N2CCCCC2C(=O)OC(C(C)CC2CCC(OCCO)C(OC)C2)CC(=O)C(C)C=C(C)C(O)C(OC)C(=O)C(C)CC(C)C=CC=CC=C1C (centres undefined) + CC(C)NCC(C(=O)N1CCN(c2ncnc3c2C(C)CC3O)CC1)c1ccc(Cl)cc1"
  study-target: "PDC tumor spheroids with HUVEC/MSC, viability"
  unit-annotation: "%"
  viability, T/C: 93.1

---

System: PDC tumor spheroids with HUVEC/MSC, viability
experimental-protocol: Anticancer human tumor 439559-082-T-J2-PDC cell line growth inhibition [TAK];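 also: spheroids exposed to drugs for seven days before readout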
condition-notes: second compound 9.49 µM; first compound 0.316 µM; stronger effect = lower value

- compound: "CC(C)(C)c1nc(-c2cccc(NS(=O)(=O)c3c(F)cccc3F)c2F)c(-c2ccnc(N)n2)s1 + CC(C)NCC(C(=O)N1CCN(c2ncnc3c2C(C)CC3O)CC1)c1ccc(Cl)cc1"
  viability, T/C / %: 102
- compound: "Cc1nc(NC(=O)N2CCCC2C(N)=O)sc1-c1ccnc(C(C)(C)C(F)(F)F)c1 (centres undefined) + CC(C)NCC(C(=O)N1CCN(c2ncnc3c2C(C)CC3O)CC1)c1ccc(Cl)cc1"
  viability, T/C / %: 85
- compound: "CCCS(=O)(=O)Nc1ccc(F)c(C(=O)c2c[nH]c3ncc(-c4ccc(Cl)cc4)cc23)c1F + CC(C)NCC(C(=O)N1CCN(c2ncnc3c2C(C)CC3O)CC1)c1ccc(Cl)cc1"
  viability, T/C / %: 96.6
- compound: "COc1c(OCCCN2CCOCC2)ccc2c3n(c(=NC(=O)c4cnc(N)nc4)nc12)CCN3 + CC(C)NCC(C(=O)N1CCN(c2ncnc3c2C(C)CC3O)CC1)c1ccc(Cl)cc1"
  viability, T/C / %: 67.8
